Origin of values: patent US20200399318A1

- assayed target: E. coli iPGM (Escherichia coli)
- Sequence (P37689 whole entry, looked up): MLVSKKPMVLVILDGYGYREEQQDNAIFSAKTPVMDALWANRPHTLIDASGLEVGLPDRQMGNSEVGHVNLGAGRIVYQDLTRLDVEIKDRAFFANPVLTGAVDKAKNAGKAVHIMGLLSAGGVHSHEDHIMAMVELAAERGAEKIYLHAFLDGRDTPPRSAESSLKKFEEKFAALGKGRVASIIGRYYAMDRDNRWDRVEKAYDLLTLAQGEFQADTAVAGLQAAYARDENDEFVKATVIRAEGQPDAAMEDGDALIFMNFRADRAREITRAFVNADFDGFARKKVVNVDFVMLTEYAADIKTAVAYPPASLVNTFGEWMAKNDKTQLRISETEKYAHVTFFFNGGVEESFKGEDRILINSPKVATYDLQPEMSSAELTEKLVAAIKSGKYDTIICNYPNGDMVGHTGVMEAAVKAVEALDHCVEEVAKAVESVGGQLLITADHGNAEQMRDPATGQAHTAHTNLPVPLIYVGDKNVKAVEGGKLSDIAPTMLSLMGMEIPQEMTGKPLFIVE
- test summary: biochemical
- assay setup: read-out: E. coli iPGM Max Inhibition
Where a SMILES comes first, the peptide text is derived from it. Bridges are numbered along the chain shown (N, C = ends). [ ]: non-standard residue; d: D form.
endpoint label: Emax
Please answer using a numeric value trailed by its unit.

Examples with answers:
compound | endpoint label | test value
CC[C@H](C)[C@@H]1NC(=O)[C@H](CCCNC(=N)N)NC(=O)[C@H](Cc2ccccc2)NC(=O)[C@@H]2CCCN2C(=O)[C@H](CC(N)=O)NC(=O)[C@H](C)NC(=O)[C@H](CC(C)C)NC(=O)[C@H]([C@@H](C)O)NC(=O)[C@H]([C@@H](C)CC)NC(=O)[C@H](Cc2ccc(O)cc2)NC(=O)CSC[C@@H](C(=O)NCC(N)=O)NC(=O)[C@H](Cc2c[nH]cn2)NC(=O)[C@H](CC(C)C)NC1=O [Ce-3] ({CH2CO}-YITLANPFRILHCG-NH2; thioether N-13) | Emax | 91.4%
CC(=O)N[C@H](Cc1ccc(O)cc1)C(=O)N[C@@H](CC(=O)O)C(=O)N[C@@H](Cc1ccc(O)cc1)C(=O)N1CCC[C@H]1C(=O)NCC(=O)N[C@@H](CC(=O)O)C(=O)N[C@@H](Cc1ccc(O)cc1)C(=O)N[C@@H](CO)C(=O)N[C@@H](Cc1ccc(O)cc1)C(=O)N[C@@H](CC(C)C)C(=O)N[C@@H](Cc1ccc(O)cc1)C(=O)NCC(=O)N[C@H](C(=O)N[C@@H](CS)C(=O)NCC(N)=O)[C@@H](C)O [Ce-L2] (Ac-[dY]DYPGDYSYLYGTCG-NH2) | Emax | 95.1%

# context switch: different compound, same Emax
Input line: Please report the recorded Emax for CC(C)C[C@@H]1NC(=O)[C@@H](Cc2ccc(O)cc2)NC(=O)CSC[C@@H](C(=O)N[C@@H](CO)C(=O)N[C@H](C(=O)N[C@@H](CS)C(=O)NCC(N)=O)[C@@H](C)O)NC(=O)[C@H](CC(N)=O)NC(=O)[C@@H]2CCCN2C(=O)[C@H](Cc2c[nH]c3ccccc23)NC(=O)[C@H](CC(=O)O)NC1=O [Bm-5] ({CH2CO}-[dY]LDWPNCSTCG-NH2; thioether N-7) .
Output line: 74.3%
